Hey, just so you know, these numbers are from patent US10479786B2.

molecular target: TEC (Homo sapiens); construct: purchased Carna Biosciences, Inc; assay: Off-chip Mobility Shift Assay, kinase inhibition; format: biochemical; details: at 1 nM; recombinant TEC
Sequence (P42680 whole entry): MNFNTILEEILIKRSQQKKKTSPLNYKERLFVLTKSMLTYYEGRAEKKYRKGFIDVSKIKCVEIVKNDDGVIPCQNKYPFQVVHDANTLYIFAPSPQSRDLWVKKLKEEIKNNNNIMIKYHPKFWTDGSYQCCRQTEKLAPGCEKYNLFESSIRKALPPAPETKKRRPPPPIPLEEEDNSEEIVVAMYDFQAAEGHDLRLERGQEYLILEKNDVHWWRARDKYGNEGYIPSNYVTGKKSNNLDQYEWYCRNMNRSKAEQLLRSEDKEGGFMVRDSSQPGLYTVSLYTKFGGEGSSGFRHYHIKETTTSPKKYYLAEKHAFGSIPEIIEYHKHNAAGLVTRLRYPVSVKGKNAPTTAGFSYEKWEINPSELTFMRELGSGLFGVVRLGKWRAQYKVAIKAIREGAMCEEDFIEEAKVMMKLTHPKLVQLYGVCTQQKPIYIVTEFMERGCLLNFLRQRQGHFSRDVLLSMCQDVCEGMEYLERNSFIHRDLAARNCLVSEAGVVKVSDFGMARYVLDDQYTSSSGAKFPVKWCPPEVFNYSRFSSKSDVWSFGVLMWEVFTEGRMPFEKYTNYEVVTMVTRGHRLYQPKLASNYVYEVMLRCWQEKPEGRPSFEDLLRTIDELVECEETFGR
# inhibition at 0.001 µM values compiled below

[[record]]
molecule = "Cc1nc(Nc2ncc(C(=O)Nc3c(C)cccc3Cl)s2)cc(N2CC[C@@H](O)C2)n1 [Compound XI]"
recorded_result = "> 50%"

[[record]]
molecule = "Cc1nc(Nc2ncc(C(=O)Nc3c(C)cccc3Cl)s2)cc(N2CCC(O)CC2)n1 [Compound IX]"
recorded_result = "> 50%"


We next turn to a different molecule, shown below.
Exercise: Quickly give me recorded inhibition at 0.001 µM for Cc1nc(Nc2ncc(C(=O)Nc3c(C)cccc3Cl)s2)cc(N2CCCCC2)n1 [Compound VIII]
Key: > 50%
